src = patent EP2272817A1

SYSTEM NAME: recombinant human PAI-1 (Homo sapiens)
RUN DESCRIPTION: biochemical
CONDITION: read-out: Inhibition Rate of PAI-1 Activity (%)
Mark yes for reported inhibition at 5 µM of 30% or greater; mark no for anything smaller.

These solved cases illustrate the format of a correct answer.
| COMPOUND | CATEGORY LABEL |
| --- | --- |
| Cc1ccc(N(Cc2ccc(C(C)(C)C)cc2)C(=O)C(=O)O)cc1OCc1ccc(OC(F)(F)F)cc1 | yes |
| O=C(O)C(=O)N(c1ccc(-c2ccc(OC(F)(F)F)cc2)cc1)C1CCCCC1 | no |
| COc1ccc(-c2ccc(N(Cc3ccc(C(C)(C)C)cc3)C(=O)C(=O)O)cc2)cc1 | no |

Query: Is inhibition at 5 µM for "CC(C)Oc1ccc(N(CCCCc2ccccc2)C(=O)C(=O)O)cc1-c1ccc(OC(F)(F)F)cc1" at or above 30%?
Reply: yes

Query: Hi, just wondering whether "CC(C)(Nc1cc(-c2ccc(OC(F)(F)F)cc2)ccc1OCc1ccc(C(C)(C)C)cc1)C(=O)O" shows inhibition at 5 µM of 30% or higher.
Reply: yes

Query: // inclusive: inhibition at 5 µM at least 30%? input: "O=C(O)C(=O)N(CCCCc1ccccc1)c1ccc(N2CCCCC2)c(-c2ccc(OC(F)(F)F)cc2)c1"
Reply: yes

Query: I'd appreciate it if you could say whether "CC(C)(C)c1ccc(N(C(=O)C(=O)O)c2cccc(Oc3ccc(OC(F)(F)F)cc3)c2)cc1" has inhibition at 5 µM at least equal to 30%.
Reply: yes

Query: Tell me whether inhibition at 5 µM is at least 30% here: "CC(C)(C)c1ccc(CN(C(=O)C(=O)O)c2ccc(-c3ccc(OC(F)(F)F)cc3)cc2C(F)(F)F)cc1"
Reply: yes

Query: Decide: is the reported value of inhibition at 5 µM for "CC(C)(C)c1ccc(CN(C(=O)C(=O)O)c2ccc(SCc3ccc(OC(F)(F)F)cc3)cc2)cc1" equal to or greater than 30%?
Reply: yes

###

SYSTEM NAME: recombinant human PAI-1 (Homo sapiens, UniProt P05121)
Sequence (P05121 24-402): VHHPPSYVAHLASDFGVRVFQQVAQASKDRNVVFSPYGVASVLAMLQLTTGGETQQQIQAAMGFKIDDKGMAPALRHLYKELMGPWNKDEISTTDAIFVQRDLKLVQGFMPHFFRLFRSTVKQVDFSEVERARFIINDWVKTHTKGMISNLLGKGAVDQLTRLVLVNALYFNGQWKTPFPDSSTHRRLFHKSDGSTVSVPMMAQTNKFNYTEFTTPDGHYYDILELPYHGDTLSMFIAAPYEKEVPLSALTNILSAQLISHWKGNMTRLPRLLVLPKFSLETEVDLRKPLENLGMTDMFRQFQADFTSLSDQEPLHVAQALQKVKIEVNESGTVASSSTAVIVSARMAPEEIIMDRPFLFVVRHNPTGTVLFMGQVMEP
RUN DESCRIPTION: Test Example 2: Human PAI-1 Inhibitory Activity (pH 7.4 HEPES buffer, 10 minutes incubation with two-chain tPA)
Format: biochemical
Set-up: purchased Molecular Innovations, Inc
CONDITION: read-out: Inhibition Rate of PAI-1 Activity (%)
RECORDED ENDPOINT: inhibition at 0.1 µM (%)
API: value field is a number in %; no unit string.

| COMPOUND STRING | SYSTEM NAME | inhibition at 0.1 µM (%) |
| --- | --- | --- |
| CC(C)(C)c1cccc(Oc2cc(-c3ccc(OC(F)(F)F)cc3)ccc2OCC(=O)O)c1 | recombinant human PAI-1 (Homo sapiens, UniProt P05121) | 3 |
| CCCCOc1ccc(N(Cc2ccc(C(C)(C)C)cc2)C(=O)C(=O)O)cc1-c1ccc(OC(F)(F)F)cc1 | recombinant human PAI-1 (Homo sapiens, UniProt P05121) | 2 |
| CC(C)(C)c1ccc(Oc2cc(-c3cc(Cl)ccc3Cl)ccc2OCC(=O)O)cc1 | recombinant human PAI-1 (Homo sapiens, UniProt P05121) | 9 |

Query: Query the reported inhibition at 0.1 µM for recombinant human PAI-1 (Homo sapiens, UniProt P05121); item: "CC(C)(C)c1ccc(Oc2cc(-c3ccc(OC(F)(F)F)cc3)ccc2OCC(=O)O)cc1"
Reply: 0

Query: API: value(readout=inhibition at 0.1 µM, system=recombinant human PAI-1 (Homo sapiens, UniProt P05121)) for record "COc1ccc(-c2ccc(OC(F)(F)F)cc2)cc1N(CCCCc1ccccc1)C(=O)C(=O)O"
Reply: 0

###

SYSTEM NAME: recombinant human PAI-1 (Homo sapiens, UniProt P05121)
RUN DESCRIPTION: biochemical
CONDITION: read-out: Inhibition Rate of PAI-1 Activity (%)
Rule: 1 (yes) for inhibition at 10 µM not less than 60%, 0 (no) for anything less.

These solved cases illustrate the format of a correct answer.
| MOLECULE | CATEGORY LABEL |
| --- | --- |
| CC(C)(C)CN(C(=O)C(=O)O)c1ccc(-c2ccc(OC(F)(F)F)cc2)cc1 | 0 (no) |
| CC(C)(OCc1ccc(-c2ccc(OC(F)(F)F)cc2)cc1Oc1ccc(C(C)(C)C)cc1)C(=O)O | 1 (yes) |
| CCC(CC)Oc1ccc(N(Cc2ccc(C(C)(C)C)cc2)C(=O)C(=O)O)c(-c2ccc(OC(F)(F)F)cc2)c1 | 1 (yes) |
| Cc1c(-c2ccc(OC(F)(F)F)cc2)cccc1N(Cc1ccc(C(C)(C)C)cc1)C(=O)C(=O)O | 1 (yes) |
| CSc1ccc(CN(C(=O)C(=O)O)c2ccc(-c3ccc(OC(F)(F)F)cc3)cc2)cc1 | 0 (no) |

Query: Hello, I need to know if "CC(C)(C)c1ccc(Oc2cc(Oc3ccc(OC(F)(F)F)cc3)ccc2CCC(=O)O)cc1" has measured inhibition at 10 µM not below 60%. Thanks!
Reply: 1 (yes)

Query: Could you please find out whether CC(OCC(=O)O)c1cc(-c2ccc(OC(F)(F)F)cc2)ccc1OCc1ccc(C(C)(C)C)cc1 (centres unmarked) has inhibition at 10 µM that meets 60% or exceeds it?
Reply: 1 (yes)

Query: Given the entry "COc1ccc(-c2ccc(N(Cc3ccc(C(C)(C)C)cc3)C(=O)C(=O)O)cc2)cc1" , answer whether its inhibition at 10 µM meets or surpasses 60%.
Reply: 0 (no)

Query: Kindly determine if inhibition at 10 µM recorded for CC(C)(C)c1ccc(Oc2cc(-c3ccc(OC(F)(F)F)cc3)ccc2OC(F)C(=O)O)cc1 (centres unmarked) is above or exactly 60%.
Reply: 1 (yes)

Query: Textbook exercise: given the entry "CC(C)(C)c1ccc(CN(C(=O)C(=O)O)c2cccc(OCc3ccc(OC(F)(F)F)cc3)c2)cc1" , state whether its inhibition at 10 µM is greater than or equal to 60%.
Reply: 1 (yes)

Query: I'd appreciate it if you could say whether "CC(C)(C)c1ccc(-c2ccc(N(Cc3ccccc3)C(=O)C(=O)O)cc2)cc1" has inhibition at 10 µM at least equal to 60%.
Reply: 0 (no)

###

SYSTEM NAME: recombinant rat PAI-1 (Rattus norvegicus, UniProt P20961)
Sequence (P20961 24-402): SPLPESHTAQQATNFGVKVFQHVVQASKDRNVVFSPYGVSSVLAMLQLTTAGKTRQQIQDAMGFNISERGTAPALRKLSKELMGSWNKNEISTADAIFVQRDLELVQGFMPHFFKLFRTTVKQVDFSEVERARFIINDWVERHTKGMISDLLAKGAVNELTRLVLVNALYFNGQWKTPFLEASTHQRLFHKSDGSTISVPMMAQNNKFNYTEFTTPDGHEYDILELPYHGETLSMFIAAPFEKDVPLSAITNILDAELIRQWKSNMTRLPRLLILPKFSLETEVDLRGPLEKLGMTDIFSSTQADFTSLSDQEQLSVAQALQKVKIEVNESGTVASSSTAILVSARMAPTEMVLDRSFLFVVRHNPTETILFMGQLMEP
RUN DESCRIPTION: biochemical
CONDITION: read-out: Inhibition Rate of PAI-1 Activity (%)
RECORDED ENDPOINT: inhibition at 10 µM

Query: Value lookup for inhibition at 10 µM; key = "CCCCCOc1ccc(-c2ccc(OC(F)(F)F)cc2)cc1N(Cc1ccc(C(C)(C)C)cc1)C(=O)C(=O)O"
Reply: > 99%

Query: Can you share its inhibition at 10 µM? I mean this molecule: "CCC(CC)Oc1ccc(N(CCCc2ccccc2)C(=O)C(=O)O)cc1-c1ccc(OC(F)(F)F)cc1"
Reply: 94%

###

SYSTEM NAME: recombinant human PAI-1 (Homo sapiens)
RUN DESCRIPTION: Test Example 2: Human PAI-1 Inhibitory Activity (pH 7.4 HEPES buffer, 10 minutes incubation with two-chain tPA)
Format: biochemical
Design: purchased Molecular Innovations, Inc
CONDITION: read-out: Inhibition Rate of PAI-1 Activity (%)
Use 1% as the dividing line for inhibition at 0.1 µM, with the line itself on the Met side and lower values as Not met.

| COMPOUND | CATEGORY LABEL |
| --- | --- |
| CCCCCOc1ccc(-c2ccc(OC(F)(F)F)cc2)cc1N(Cc1ccc(C(C)(C)C)cc1)C(=O)C(=O)O [Compound 194] | Not met |
| Cc1cccc(-c2ccc(Oc3ccc(C(C)(C)C)cc3)c(OCC(=O)O)c2)c1 [Compound 316] | Met |
| CCCCCOc1ccc(-c2cccc(C(F)(F)F)c2)cc1N(CCCCc1ccccc1)C(=O)C(=O)O [Compound 378] | Met |
| CC(C)(C)c1ccc(COc2c(CCC(=O)O)cccc2-c2ccc(OC(F)(F)F)cc2)cc1 [Compound 88] | Not met |
| CC(C)(C)c1ccc(Oc2cc(Nc3ccc(OC(F)(F)F)cc3)ccc2/C=C/C(=O)O)cc1 [Compound 531] | Met |

Query: Form field: inhibition at 0.1 µM at least 1%? Entry: O=C(O)C(=O)N(CCCCc1ccccc1)c1cc(-c2ccc(OC(F)(F)F)cc2)ccc1N1CCCCC1 [Compound 370]
Reply: Not met

Query: hey, is inhibition at 0.1 µM for this one >= 1%? CCCCCOc1ccc(Oc2ccc(OC(F)(F)F)cc2)cc1N(CCCCc1ccccc1)C(=O)C(=O)O [Compound 363]
Reply: Met

Query: Tell me whether inhibition at 0.1 µM is at least 1% here: CC(C)(C)c1ccc(COc2ccc(-c3ccc(OC(F)(F)F)cc3)cc2C(=O)O)cc1 [Compound 421]
Reply: Not met

Query: Hello, I need to know if CC(C)c1ccccc1Oc1cc(-c2ccc(OC(F)(F)F)cc2)ccc1CCC(=O)O [Compound 491] has measured inhibition at 0.1 µM not below 1%. Thanks!
Reply: Met

Query: Given the entry CCCCC(C(=O)O)N(Cc1ccc(C(C)(C)C)cc1)c1ccc(-c2ccc(OC(F)(F)F)cc2)cc1 (centres unmarked) [Compound 642] , answer whether its inhibition at 0.1 µM meets or surpasses 1%.
Reply: Met

Query: Would you say CC(C)(C)c1ccc(Oc2cc(-c3ccccc3OC(F)(F)F)ccc2OCC(=O)O)cc1 [Compound 456] shows inhibition at 0.1 µM at minimum 1%?
Reply: Met
